- targetEntity: human β3 adrenergic receptor (Homo sapiens)
- Construct: expressed in transfected cells; host or cells: DXB-11 Chinese hamster ovary (CHO) cell line, stably transfected (phd expression vector)
- assayProcedure: whole cell receptor coupled c-AMP assay, human β3 receptor in CHO cells (EC50, Emax relative to isoproterenol)
- Format: cell-based
- cond: Emax ± standard error of the mean; average of at least 3 runs except where n = 1; compound tested in the isolated form listed
measuredProperty: Emax (%) ± SEM

compoundString	measuredProperty	u	endpointValue
CC(C)(Cc1ccc(Oc2ccc(C(N)=O)cn2)cc1)NC[C@H](O)COc1ccccc1-c1ccoc1.Cl	Emax (%) ± SEM	%	61.9
CC(C)(Cc1ccc(Oc2ccccc2C#N)cc1)NC[C@H](O)COc1ccccc1-c1ccno1.O=C(O)C(F)(F)F	Emax (%) ± SEM	%	68.9
CC(C)(Cc1ccc(Oc2ccc(C(N)=O)cc2)cc1)NC[C@H](O)COc1ccccc1-c1ccno1.O=C(O)C(F)(F)F	Emax (%) ± SEM	%	40.3
CC(C)(Cc1ccc(Oc2ccc(C(N)=O)cn2)cc1)NC[C@H](O)COc1ccccc1-c1ccon1.Cl	Emax (%) ± SEM	%	54.2
CC(C)(Cc1ccc(Oc2ncccc2C(N)=O)cc1)NC[C@H](O)COc1ccccc1-c1nc2ccccc2o1	Emax (%) ± SEM	%	60.4
COC(=O)c1ccc(Oc2ccc(CC(C)(C)NC[C@H](O)COc3ccccc3-c3cccs3)cc2)nc1	Emax (%) ± SEM	%	61.9
CC(C)(Cc1ccc(Oc2ncccc2C#N)cc1)NC[C@H](O)COc1ccccc1-c1ccon1.Cl	Emax (%) ± SEM	%	70.8
CC(C)(Cc1ccc(Oc2ccc(C(N)=O)cn2)cc1)NC[C@H](O)COc1ccccc1-c1cnco1.Cl	Emax (%) ± SEM	%	64.7
CC(C)(Cc1ccc(Oc2ccc(C(N)=O)nc2)cc1)NC[C@H](O)COc1ccccc1-c1nccs1.O=C(O)C(F)(F)F	Emax (%) ± SEM	%	64.2
CCOC(=O)c1cccnc1Oc1ccc(CC(C)(C)NC[C@H](O)COc2ccccc2-c2ccno2)cc1	Emax (%) ± SEM	%	60.3
CCOC(=O)c1cccnc1Oc1ccc(CC(C)(C)NC[C@H](O)COc2ccccc2-c2ccn(C)n2)cc1	Emax (%) ± SEM	%	53.2
CC(C)(Cc1ccc(Oc2cnccn2)cc1)NC[C@H](O)COc1ccccc1-c1ccno1.O=C(O)C(F)(F)F	Emax (%) ± SEM	%	46.6
CC(C)(Cc1ccc(Oc2ccc(C#N)cc2)cc1)NC[C@H](O)COc1ccccc1-c1cccs1.O=C(O)C(F)(F)F	Emax (%) ± SEM	%	55.2
CC(C)(Cc1ccc(Oc2ccc(C(N)=O)s2)cc1)NC[C@H](O)COc1ccccc1-c1cscn1.Cl	Emax (%) ± SEM	%	54.1

---

Listing of recorded Emax (%) ± SEM by entry.
- targetEntity: human β3 adrenergic receptor (Homo sapiens, UniProt P13945)
- Construct: expressed in transfected cells; host or cells: DXB-11 Chinese hamster ovary (CHO) cell line, stably transfected (phd expression vector)
- Sequence (P13945 whole entry): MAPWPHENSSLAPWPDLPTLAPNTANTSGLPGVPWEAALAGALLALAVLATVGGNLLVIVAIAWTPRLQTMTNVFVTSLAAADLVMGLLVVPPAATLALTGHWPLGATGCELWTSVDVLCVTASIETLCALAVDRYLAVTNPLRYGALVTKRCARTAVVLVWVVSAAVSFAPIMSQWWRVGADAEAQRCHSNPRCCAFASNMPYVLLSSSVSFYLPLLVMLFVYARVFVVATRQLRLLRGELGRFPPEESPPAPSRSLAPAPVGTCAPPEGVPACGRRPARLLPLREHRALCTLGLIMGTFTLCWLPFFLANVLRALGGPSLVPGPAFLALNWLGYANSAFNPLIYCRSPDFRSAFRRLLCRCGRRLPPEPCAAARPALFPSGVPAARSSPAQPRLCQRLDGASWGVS
- assayProcedure: whole cell receptor coupled c-AMP assay, human β3 receptor in CHO cells (EC50, Emax relative to isoproterenol)
- Format: cell-based
- cond: Emax ± standard error of the mean; average of at least 3 runs except where n = 1; compound tested in the isolated form listed

Known Emax (%) ± SEM results, listed for orientation:
compoundString	Emax (%) ± SEM
CC(C)(Cc1ccc(Oc2ncccc2C(N)=O)cc1)NC[C@H](O)COc1cccc(-c2ccno2)c1	<10%
Cn1nccc1-c1ccccc1OC[C@@H](O)CNC(C)(C)Cc1ccc(Oc2ccc(C(N)=O)cn2)cc1	16.9 n = 1%
COC(=O)c1ccc(Oc2ccc(CC(C)(C)NC[C@H](O)COc3ccccc3-c3ccn[nH]3)cc2)nc1	29.5 n = 1%

Any idea what Emax (%) ± SEM was measured for "CC(C)(Cc1ccc(Oc2ccc(C(N)=O)cn2)cc1)NC[C@H](O)COc1cccc(-c2cc[nH]n2)c1" ?
<10%
